EXPERIMENTAL SYSTEM: T1, human ENTPD2, full length, on cells (human, UniProt Q9Y5L3 1-495); further: test concentration or dose not given here
T1 sequence: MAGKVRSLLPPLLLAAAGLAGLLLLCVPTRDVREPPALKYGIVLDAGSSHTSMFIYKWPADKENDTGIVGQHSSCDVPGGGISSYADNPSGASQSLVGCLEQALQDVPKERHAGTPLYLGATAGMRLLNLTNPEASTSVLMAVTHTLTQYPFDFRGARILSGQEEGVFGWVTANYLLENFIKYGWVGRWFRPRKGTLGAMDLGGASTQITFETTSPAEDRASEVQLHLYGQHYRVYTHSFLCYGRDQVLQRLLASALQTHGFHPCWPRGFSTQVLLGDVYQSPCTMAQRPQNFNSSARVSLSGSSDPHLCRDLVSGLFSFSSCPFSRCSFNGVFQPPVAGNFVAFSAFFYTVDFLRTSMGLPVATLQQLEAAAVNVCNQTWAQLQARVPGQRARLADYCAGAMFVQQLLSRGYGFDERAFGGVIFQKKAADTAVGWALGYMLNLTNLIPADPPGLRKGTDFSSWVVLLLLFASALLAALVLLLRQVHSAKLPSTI
PROTOCOL NOTES: cell-based or functional assay
Entries and their measured RKO Assay % inhibition follow.
Number in %, nothing else.

Solved entries:
BINDER | RKO Assay % inhibition, %
ANTI-HUMAN ENTPD2 MAB10 (antibody, human IgG1, lambda, V domains shown) VH: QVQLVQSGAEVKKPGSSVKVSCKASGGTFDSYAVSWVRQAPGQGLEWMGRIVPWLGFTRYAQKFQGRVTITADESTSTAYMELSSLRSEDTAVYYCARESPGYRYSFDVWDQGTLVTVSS VL: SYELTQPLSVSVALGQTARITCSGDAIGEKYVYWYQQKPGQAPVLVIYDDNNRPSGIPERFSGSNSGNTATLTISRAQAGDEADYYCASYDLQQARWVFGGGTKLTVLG | 77
ANTI-HUMAN ENTPD2 MAB1 (antibody, human IgG1, kappa, V domains shown) VH: EVQLVQSGAEVKKPGESLKISCKASGYTFTDYNMDWVRQMPGKGLEWMGDINPKYDISTYNQQFKGQVTISADKSIRTAYLQWSSLKASDTAMYYCARRGFFLYYGINYYYFDVWGQGTLVTVSS VL: DIQLTQSPSSLSASVGDRVTITCSASSSVSYIHWFQQKPGKAPKLLIYSTSNLASGVPSRFSGSGSGTFFTLTISSLQPEDFATYFCHQWSSYPWTFGQGTKVEIKR | 97

Given ANTI-HUMAN ENTPD2 MAB17 (antibody, human IgG1, kappa, V domains shown) VH: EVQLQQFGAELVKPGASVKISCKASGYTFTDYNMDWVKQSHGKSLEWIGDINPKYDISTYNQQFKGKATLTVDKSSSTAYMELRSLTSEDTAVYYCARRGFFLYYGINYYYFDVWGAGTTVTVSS VL: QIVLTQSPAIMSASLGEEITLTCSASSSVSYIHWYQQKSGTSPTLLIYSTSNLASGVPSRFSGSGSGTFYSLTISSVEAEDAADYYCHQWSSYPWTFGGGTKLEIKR , state its recorded RKO Assay % inhibition.
96
